// provenance: patent US8658638B2

Target: UniProtKB P10275
Sequence (P10275 whole entry): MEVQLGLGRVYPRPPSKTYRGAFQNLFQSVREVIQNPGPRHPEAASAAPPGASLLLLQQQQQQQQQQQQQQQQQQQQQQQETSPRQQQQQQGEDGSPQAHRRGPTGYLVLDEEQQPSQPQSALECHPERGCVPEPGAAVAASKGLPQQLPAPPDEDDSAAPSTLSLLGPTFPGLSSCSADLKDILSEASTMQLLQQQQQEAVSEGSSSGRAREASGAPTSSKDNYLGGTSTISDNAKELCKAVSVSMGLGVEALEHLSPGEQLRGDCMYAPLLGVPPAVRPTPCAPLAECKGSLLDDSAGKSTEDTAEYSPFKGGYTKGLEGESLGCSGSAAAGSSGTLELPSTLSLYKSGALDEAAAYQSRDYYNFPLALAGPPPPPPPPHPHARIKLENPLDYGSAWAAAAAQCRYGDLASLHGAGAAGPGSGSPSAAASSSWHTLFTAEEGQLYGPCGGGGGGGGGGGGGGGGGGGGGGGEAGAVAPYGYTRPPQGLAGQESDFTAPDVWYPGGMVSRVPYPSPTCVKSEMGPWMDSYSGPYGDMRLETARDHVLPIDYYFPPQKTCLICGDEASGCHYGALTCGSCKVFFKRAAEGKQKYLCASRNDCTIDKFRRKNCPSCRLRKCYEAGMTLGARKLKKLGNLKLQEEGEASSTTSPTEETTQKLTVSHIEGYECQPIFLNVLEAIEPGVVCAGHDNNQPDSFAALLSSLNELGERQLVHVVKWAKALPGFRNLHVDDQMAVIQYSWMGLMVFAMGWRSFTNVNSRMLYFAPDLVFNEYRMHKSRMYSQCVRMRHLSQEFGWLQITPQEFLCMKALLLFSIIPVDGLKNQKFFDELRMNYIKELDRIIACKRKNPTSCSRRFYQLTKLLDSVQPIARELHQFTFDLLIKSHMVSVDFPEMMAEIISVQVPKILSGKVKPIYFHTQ
Test: Nuclear hormone receptor panel screen (luciferase reporter, HEK293), AR
Conditions: antagonist mode, 0.66 nM methyltrienolone
readout.label: IC50

Recorded result, O=c1[nH]c2cc(/C=C3\c4ccccc4COc4cc(F)ccc43)ccc2n1[C@@H]1C[C@@H]2COCCN2C1 [Compound (I)] , IC50: > 10 µM

====

Biological target: human glucocorticoid receptor (GR) (Homo sapiens)
Construct: expressed in transfected cells; host or cells: HEK293
Sequence (P04150 whole entry): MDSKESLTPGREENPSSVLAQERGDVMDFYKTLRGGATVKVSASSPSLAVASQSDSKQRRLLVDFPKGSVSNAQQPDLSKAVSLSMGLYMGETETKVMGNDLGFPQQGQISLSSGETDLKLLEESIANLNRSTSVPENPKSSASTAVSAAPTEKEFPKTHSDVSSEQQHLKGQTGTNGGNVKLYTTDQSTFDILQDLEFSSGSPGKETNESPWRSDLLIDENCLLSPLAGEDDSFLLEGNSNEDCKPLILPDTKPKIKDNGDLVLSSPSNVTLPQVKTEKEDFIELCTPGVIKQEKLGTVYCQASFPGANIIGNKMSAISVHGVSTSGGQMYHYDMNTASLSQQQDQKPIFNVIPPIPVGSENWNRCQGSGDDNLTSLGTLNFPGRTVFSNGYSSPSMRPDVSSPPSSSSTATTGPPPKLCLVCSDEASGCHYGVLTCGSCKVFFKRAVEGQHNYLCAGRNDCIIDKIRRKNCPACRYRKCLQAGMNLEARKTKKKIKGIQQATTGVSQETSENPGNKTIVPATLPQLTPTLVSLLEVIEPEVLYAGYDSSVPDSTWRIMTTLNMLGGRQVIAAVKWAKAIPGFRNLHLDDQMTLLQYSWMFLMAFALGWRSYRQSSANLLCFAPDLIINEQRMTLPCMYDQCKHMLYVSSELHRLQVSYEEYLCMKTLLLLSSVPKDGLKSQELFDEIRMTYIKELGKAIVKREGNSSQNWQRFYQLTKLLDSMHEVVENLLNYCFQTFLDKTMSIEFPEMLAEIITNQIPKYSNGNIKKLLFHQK
Assay: Nuclear hormone receptor panel screen (luciferase reporter, HEK293), GR
Assay type: cell-based
Settings: antagonist mode, 0.25 nM dexamethasone
readout.label: IC50

Recorded result, O=c1[nH]c2cc(/C=C3\c4ccccc4COc4cc(F)ccc43)ccc2n1[C@@H]1C[C@@H]2COCCN2C1 , IC50: > 10 µM

====

Molecular target: human MR (mineralocorticoid receptor) (Homo sapiens)
Sequence (P08235 whole entry): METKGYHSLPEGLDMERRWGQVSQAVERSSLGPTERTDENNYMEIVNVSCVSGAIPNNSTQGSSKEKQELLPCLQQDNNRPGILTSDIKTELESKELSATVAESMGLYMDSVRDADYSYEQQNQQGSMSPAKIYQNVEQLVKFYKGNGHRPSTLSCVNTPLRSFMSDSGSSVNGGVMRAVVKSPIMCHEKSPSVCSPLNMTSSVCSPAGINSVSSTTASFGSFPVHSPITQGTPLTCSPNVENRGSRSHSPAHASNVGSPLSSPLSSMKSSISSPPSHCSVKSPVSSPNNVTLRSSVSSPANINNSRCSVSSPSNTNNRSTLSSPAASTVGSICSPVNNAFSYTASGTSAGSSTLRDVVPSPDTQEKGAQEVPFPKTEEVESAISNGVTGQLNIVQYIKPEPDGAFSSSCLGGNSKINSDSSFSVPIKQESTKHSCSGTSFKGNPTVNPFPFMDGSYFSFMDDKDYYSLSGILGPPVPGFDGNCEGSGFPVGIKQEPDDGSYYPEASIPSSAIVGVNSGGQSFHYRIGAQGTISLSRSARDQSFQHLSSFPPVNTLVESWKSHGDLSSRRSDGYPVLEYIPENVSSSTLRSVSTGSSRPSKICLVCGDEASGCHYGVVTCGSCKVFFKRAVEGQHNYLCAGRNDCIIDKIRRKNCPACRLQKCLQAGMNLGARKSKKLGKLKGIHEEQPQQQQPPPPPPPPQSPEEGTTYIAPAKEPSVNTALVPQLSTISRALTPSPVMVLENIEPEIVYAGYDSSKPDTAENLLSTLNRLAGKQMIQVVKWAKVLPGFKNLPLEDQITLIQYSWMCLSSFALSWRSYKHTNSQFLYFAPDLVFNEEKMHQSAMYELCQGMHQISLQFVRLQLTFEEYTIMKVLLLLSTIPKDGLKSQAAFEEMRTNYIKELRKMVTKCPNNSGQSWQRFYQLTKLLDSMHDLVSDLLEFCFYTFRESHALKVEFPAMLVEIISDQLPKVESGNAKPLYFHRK
Assay: Steroid nuclear hormone receptor binding assay, MR
Details: [3H]-aldosterone, HEK293 lysate overexpressing human MR
pKi: −log10 of the molar value.
readout.label: pKi

Recorded result, O=c1[nH]c2cc(/C=C3\c4ccccc4COc4cc(F)ccc43)ccc2n1[C@@H]1C[C@@H]2COCCN2C1 , pKi: ~9.40

====

Molecular target: human progesterone receptor (PR) (Homo sapiens, UniProt P06401)
Assay: Nuclear hormone receptor panel screen (luciferase reporter, HEK293), PR
Settings: agonist mode
readout.label: EC50

Recorded result, O=c1[nH]c2cc(/C=C3\c4ccccc4COc4cc(F)ccc43)ccc2n1[C@@H]1C[C@@H]2COCCN2C1 [Compound (I)] , EC50: > 10 µM

====

Target: human PR (progesterone receptor) (Homo sapiens)
Assay: Steroid nuclear hormone receptor binding assay, PR
Conditions: [3H]-methyltrienolone, HEK293 lysate overexpressing human PR
pKi: −log10 of the molar value.
readout.label: pKi

Field pKi (system: human PR (progesterone receptor) (Homo sapiens)) for entry O=c1[nH]c2cc(/C=C3\c4ccccc4COc4cc(F)ccc43)ccc2n1[C@@H]1C[C@@H]2COCCN2C1 [Compound (I)] = ~6.32

====

Target: human progesterone receptor (PR) (Homo sapiens, UniProt P06401)
Sequence (P06401 1-933): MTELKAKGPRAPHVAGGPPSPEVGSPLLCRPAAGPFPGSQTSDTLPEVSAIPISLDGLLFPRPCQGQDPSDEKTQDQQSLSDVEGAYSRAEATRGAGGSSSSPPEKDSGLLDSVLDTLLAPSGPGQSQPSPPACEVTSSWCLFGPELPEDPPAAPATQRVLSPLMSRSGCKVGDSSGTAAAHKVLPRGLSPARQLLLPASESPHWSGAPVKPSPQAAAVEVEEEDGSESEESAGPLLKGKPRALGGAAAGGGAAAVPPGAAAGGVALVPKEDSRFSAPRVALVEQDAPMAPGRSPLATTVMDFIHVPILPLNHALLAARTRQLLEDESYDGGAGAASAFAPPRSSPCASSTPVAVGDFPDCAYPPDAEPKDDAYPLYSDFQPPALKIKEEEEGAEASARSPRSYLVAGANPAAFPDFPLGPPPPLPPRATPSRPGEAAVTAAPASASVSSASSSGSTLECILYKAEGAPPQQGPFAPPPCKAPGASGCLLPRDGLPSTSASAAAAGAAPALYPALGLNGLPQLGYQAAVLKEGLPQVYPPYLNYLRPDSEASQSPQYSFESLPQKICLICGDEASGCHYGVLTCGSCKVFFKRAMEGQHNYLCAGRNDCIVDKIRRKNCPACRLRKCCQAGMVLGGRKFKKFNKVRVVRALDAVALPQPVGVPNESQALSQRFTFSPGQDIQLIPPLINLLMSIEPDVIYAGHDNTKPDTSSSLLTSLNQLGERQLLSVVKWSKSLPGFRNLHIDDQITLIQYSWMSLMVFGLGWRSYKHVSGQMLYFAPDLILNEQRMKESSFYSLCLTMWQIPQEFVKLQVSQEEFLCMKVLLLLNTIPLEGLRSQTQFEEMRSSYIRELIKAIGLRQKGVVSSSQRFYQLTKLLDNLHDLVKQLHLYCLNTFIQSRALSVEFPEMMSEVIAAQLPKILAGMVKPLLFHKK
Test: Nuclear hormone receptor panel screen (luciferase reporter, HEK293), PR
Details: antagonist mode, 0.08 nM promegestone
readout.label: IC50

Recorded result, O=c1[nH]c2cc(/C=C3\c4ccccc4COc4cc(F)ccc43)ccc2n1[C@@H]1C[C@@H]2COCCN2C1 , IC50: ~924 nM
